B1: Osa-1-4 twister ribozyme (parent)
chain: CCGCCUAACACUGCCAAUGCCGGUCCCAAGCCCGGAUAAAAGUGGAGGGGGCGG

Variants of: B1
Assay: self-cleavage, relative activity (ratio to wild type); higher = more cleavage; co-transcriptional
The variants listed here are annotated with their self-cleavage.

Below: 4 variants and their reported self-cleavage.
[[record]]
variant_notation = "C11G G51U"
measured_attribute = "self-cleavage"
recorded_result = 0.05

[[record]]
variant_notation = "C20U G51A"
measured_attribute = "self-cleavage"
recorded_result = 0.85

[[record]]
variant_notation = "C11U U18C"
measured_attribute = "self-cleavage"
recorded_result = 0.71

[[record]]
variant_notation = "A28C C26G"
measured_attribute = "self-cleavage"
recorded_result = 0.09


Turning now to a further variant:
// lookup self-cleavage for G49U G53U
0.07
